# Tested on: CCRF-CEM
# Assay Method Text: NCI tumour cell line growth inhibition, 48 h
Active and inactive are the calls of the source. No stated cut-off is given here; in the data, active = GI50 up to about 1.1 µM and inactive = higher.
Consider the following molecules and their measured GI50 readings.

Task: So what's the measured GI50 for this one? CCC[C@H]1O[C@@H]2CC(=O)O[C@@H]2C2=C1C(=O)C=CC2=O
Output: 3.92 µM (inactive)

Task: So what's the measured GI50 for this one? NC(=O)CC1(O)C=CC(=O)C=C1
Output: > 100 µM (inactive)

Task: So what's the measured GI50 for this one? NC(=O)c1ncn(C2OC(CO)C(O)C2O)c1O (stereo unspecified)
Output: > 100 µM (inactive)

Task: So what's the measured GI50 for this one? O=C1CC(c2ccc[nH]2)=NN1c1ccccc1
Output: 88.5 µM (inactive)

Task: So what's the measured GI50 for this one? c1cc2[se][se]c3c4cccc5[se][se]c(c(c1)c23)c54
Output: > 100 µM (inactive)

Data credit: ChEMBL document CHEMBL1201862
